// UniProt:P10635 AC50 records
Sequence (P10635 whole entry): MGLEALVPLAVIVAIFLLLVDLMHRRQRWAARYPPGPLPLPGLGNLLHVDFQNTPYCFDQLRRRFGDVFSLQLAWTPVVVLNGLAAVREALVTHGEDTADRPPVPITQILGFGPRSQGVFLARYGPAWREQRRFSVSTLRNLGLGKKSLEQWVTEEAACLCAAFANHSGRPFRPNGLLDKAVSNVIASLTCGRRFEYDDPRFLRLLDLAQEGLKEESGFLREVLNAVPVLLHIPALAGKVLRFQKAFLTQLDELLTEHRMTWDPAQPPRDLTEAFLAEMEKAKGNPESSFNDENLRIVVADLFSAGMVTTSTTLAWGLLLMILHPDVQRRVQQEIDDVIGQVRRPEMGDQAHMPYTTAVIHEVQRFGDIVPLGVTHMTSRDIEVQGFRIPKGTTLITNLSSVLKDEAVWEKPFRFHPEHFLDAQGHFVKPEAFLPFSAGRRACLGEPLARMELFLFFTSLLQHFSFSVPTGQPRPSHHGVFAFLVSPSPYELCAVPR
Endpoint label: AC50

1) CCN(CC)C(=O)CSc1nnc(-c2ccncc2)n1N
17.8 µM (inconclusive)
2) O=C(Nc1cccc(F)c1)N1CC[C@@]2(CCCN(S(=O)(=O)c3ccccc3)C2)C1
39.8 µM (inconclusive)
3) c1cnc(N2CCC3(CCNCC3)CC2)nc1
10 µM (inconclusive)
4) CCCN1CC[C@@H]2c3cc(O)ccc3CC[C@H]21
31.6 µM (inconclusive)
5) Cc1ccc(NC(=O)c2c(C(F)(F)F)nn(C)c2SCc2cccc(C(F)(F)F)c2)cc1C
14.1 µM (inconclusive)
6) Cc1ccc(O)c(C(=O)c2cc(C#N)c(=O)n(-c3c(C)n(C)n(-c4ccccc4)c3=O)c2)c1
10 µM (inconclusive)
7) CCSc1nnc(C(N)Cc2ccccc2)o1 (stereo unspecified)
17.8 µM (inconclusive)
8) CCCC[N+]1(C)[C@@H]2CC(OC(=O)[C@@H](CO)c3ccccc3)C[C@H]1[C@H]1O[C@H]12 (stereo partly specified)
7.94 µM (inconclusive)
9) O=P(c1ccccc1)(c1ccccc1)N1CC2(CC2)CC(O)(c2ccccc2)C1 (stereo unspecified)
20 µM (inconclusive)
10) O=C(NCCN1CCCC1)C1(S(=O)(=O)c2ccc(Cl)cc2)CC1
12.6 µM (inconclusive)
11) COc1ccccc1C1(CC(=O)Nc2nccs2)CCOC(C(C)C)C1 (stereo unspecified)
22.4 µM (inconclusive)
12) CCN(CC)CCOc1ccc(Cc2ccccc2)cc1
25.1 µM (inconclusive)
13) Cc1cccc(NCCNc2cccc(C)c2)c1
12.6 µM (inconclusive)
14) COc1ccc(/C=C(/C#N)C(=O)Nc2cc(C)ccc2C)cc1C(=O)O
25.1 µM (inconclusive)
15) CCCN(CCC)CCCNC(=O)c1ccc2c(c1)N(CC)C(=O)c1ccccc1[S+]2[O-] (stereo unspecified)
22.4 µM (inconclusive)
16) COC(=O)C1=C(C)N=C2SC(C)C(=O)N2C1/C=C/c1ccccc1 (stereo unspecified)
28.2 µM (inconclusive)
17) COc1ccc(NC(=O)N2CCC3(CC2)CCN(S(=O)(=O)c2ccccc2)CC3)cc1
25.1 µM (inconclusive)
18) Oc1c(CN2CCN(c3ccccc3)CC2)cc(Br)c2cccnc12
3.98 µM (inconclusive)
19) O=c1c2ccccc2nc2n1C(CSCc1cccc(C(F)(F)F)c1)CS2 (stereo unspecified)
7.08 µM (inconclusive)
20) O=C(N/N=C/c1ccncc1)c1cc([N+](=O)[O-])cc([N+](=O)[O-])c1O
14.1 µM (inconclusive)
21) Oc1c(Cl)cc(CN(Cc2cc(Cl)c(O)c(Cl)c2)C2CCCCC2)cc1Cl
5.01 µM (inconclusive)

---

// reported IC50 per item
biological target: UniProtKB P49327; test: FAS thioesterase domain inhibitors, dose response, biochemical, endpoint fluorescence intensity, uHTS hits (AID 624327); assay type: functional;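 further: fluorescence from hydrolysis of an O-methyl fluorescein acyl ester substrate by the enzyme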
Sequence (P49327 whole entry, the tested form may be a part): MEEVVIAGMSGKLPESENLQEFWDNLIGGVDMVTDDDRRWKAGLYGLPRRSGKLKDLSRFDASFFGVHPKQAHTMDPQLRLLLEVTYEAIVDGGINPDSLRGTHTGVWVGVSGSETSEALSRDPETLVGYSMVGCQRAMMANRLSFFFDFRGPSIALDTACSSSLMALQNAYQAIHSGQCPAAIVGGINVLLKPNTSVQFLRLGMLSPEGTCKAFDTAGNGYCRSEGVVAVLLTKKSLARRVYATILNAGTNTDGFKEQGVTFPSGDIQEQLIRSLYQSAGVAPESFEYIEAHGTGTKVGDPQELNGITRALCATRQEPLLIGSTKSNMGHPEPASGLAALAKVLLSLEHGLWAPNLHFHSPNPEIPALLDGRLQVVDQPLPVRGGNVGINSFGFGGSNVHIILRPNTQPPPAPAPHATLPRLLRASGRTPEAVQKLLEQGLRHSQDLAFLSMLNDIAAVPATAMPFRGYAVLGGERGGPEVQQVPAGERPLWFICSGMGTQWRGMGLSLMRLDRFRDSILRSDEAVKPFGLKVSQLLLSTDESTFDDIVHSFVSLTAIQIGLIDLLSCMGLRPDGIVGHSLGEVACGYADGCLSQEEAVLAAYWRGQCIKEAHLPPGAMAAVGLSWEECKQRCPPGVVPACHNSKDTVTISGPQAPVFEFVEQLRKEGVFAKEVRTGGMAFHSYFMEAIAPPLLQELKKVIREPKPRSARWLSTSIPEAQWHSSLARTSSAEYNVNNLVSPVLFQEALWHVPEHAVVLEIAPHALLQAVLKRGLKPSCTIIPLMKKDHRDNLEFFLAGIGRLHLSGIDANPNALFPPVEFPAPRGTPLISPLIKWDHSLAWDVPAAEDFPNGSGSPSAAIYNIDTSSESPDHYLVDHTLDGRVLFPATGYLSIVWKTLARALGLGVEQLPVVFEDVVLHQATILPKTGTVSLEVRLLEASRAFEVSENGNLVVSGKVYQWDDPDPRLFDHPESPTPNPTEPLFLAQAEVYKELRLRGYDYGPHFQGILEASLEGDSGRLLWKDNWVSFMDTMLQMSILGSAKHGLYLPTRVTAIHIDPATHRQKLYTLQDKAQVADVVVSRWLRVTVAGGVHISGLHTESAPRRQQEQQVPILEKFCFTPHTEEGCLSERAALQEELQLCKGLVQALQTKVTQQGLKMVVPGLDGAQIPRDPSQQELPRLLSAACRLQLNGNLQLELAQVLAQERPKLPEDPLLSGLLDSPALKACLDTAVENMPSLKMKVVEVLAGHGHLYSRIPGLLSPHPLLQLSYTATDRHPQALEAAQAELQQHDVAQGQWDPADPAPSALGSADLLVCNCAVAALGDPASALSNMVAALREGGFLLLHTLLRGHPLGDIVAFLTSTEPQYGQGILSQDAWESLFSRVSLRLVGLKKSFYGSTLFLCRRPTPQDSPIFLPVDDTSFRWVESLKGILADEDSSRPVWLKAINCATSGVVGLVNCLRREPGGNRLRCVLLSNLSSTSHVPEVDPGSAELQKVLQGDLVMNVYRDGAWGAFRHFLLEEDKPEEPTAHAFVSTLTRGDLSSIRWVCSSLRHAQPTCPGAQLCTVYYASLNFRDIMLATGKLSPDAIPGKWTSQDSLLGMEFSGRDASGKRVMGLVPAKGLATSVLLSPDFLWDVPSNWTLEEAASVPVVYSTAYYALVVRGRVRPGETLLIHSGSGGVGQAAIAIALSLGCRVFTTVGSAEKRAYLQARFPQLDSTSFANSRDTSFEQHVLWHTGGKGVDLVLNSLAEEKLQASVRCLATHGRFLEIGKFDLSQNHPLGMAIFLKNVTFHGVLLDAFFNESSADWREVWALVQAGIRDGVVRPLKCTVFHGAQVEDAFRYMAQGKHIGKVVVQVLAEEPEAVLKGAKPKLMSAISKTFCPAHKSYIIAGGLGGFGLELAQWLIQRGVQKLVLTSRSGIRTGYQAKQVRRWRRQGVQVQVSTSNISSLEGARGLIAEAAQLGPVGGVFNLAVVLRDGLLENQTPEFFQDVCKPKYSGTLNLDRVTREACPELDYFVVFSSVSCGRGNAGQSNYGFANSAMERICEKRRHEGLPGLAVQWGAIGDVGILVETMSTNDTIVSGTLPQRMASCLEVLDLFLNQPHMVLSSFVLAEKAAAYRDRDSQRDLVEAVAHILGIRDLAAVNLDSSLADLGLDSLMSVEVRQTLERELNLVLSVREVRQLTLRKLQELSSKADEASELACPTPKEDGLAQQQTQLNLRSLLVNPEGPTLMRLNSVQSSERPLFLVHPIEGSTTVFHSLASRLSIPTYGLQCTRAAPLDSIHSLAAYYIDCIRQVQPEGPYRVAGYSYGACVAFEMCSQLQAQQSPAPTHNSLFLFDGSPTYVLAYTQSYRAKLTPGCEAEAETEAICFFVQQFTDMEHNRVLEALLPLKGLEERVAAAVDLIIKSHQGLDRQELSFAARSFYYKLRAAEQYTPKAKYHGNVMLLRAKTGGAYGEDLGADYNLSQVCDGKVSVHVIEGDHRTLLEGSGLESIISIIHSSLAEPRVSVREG
Activity calls are given as the source filed them.
Endpoint label: IC50

1. O=C(O)c1ccc(N/N=C/c2ccc(-c3ccc(Cl)cc3Cl)o2)cc1
7.07 µM (active)
2. CC(C(=O)NCCC1=CCCCC1)c1ccc([N+](=O)[O-])cc1 (configuration not stated)
5.76 µM (active)
3. O=[N+]([O-])c1ccc(-c2nc(Nc3cccc(O)c3)c3ccccc3n2)cc1
12.9 µM (active)
4. Cc1cccc(CS(=O)(=O)c2ncc(Cl)c(C(=O)Nc3ccc(F)cc3)n2)c1
9.64 µM (active)
5. C/C(=N\NS(=O)(=O)c1ccc(Cl)c([N+](=O)[O-])c1)c1cc2ccccc2o1
12.3 µM (active)
6. Cc1c(OCC(=O)NC(Cc2ccc(Cl)cc2)C(=O)O)ccc2c(-c3ccccc3)cc(=O)oc12 (configuration not stated)
6.45 µM (active)
7. COc1ccc([N+](=O)[O-])cc1NC(=O)C(C)OC(=O)/C=C/c1ccco1 (configuration not stated)
3.26 µM (active)
